- Experimental target: ERK2 D319N (Mus musculus, UniProt P63085, D319N)
- Construct: His6
- Sequence (P63085 whole entry D319N): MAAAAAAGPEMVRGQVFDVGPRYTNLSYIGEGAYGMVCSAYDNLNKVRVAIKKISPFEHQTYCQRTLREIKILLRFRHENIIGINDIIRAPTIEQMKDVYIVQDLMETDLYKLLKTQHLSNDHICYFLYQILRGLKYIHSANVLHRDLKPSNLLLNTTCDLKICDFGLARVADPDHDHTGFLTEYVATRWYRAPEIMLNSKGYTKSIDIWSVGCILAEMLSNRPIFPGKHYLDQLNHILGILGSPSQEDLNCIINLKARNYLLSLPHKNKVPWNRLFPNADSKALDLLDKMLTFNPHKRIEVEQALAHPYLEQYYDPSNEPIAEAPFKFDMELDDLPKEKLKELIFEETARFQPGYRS
- Measurement notes: Competitive peptide kinase assay (D-peptide inhibition), ERK2 D319N
- Applied conditions: Table S1, 5 μM reporter peptide, 10 nM ERK2, 10 μM ATP, three independent experiments
Peptide text beside a SMILES is read from it.
Measured quantity: IC50

Molecule	Measured
CC[C@H](C)[C@H](NC(=O)[C@@H](NC(=O)[C@H](CCC(=O)O)NC(=O)[C@H](CCSC)NC(=O)[C@H](CCC(N)=O)NC(=O)[C@H](CCCNC(=N)N)NC(=O)[C@H](CCCNC(=N)N)NC(=O)[C@H](CC(N)=O)NC(=O)[C@H](CCCNC(=N)N)NC(=O)[C@H](CC(C)C)NC(=O)[C@H](C)NC(=O)[C@@H](N)Cc1ccc(O)cc1)C(C)C)C(=O)N[C@@H](CO)C(=O)N[C@@H](CC(C)C)C(=O)N[C@@H](CCCNC(=N)N)C(=O)N[C@@H](CC(C)C)C(=O)O [DISC1] (H-YALRNRRQMEVISLRL-OH)	79 µM
